protocol_text: APR_HepG2_p53Act_72hr: Apredica 72-hour HepG2 Assay for p53 Activation (AID 2282923);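 also: average cellular p53 protein immunofluorescence intensity in HepG2 cells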
stated_conditions: high-content imaging, actives raise or lower the signal
The source made the active and inactive calls. The calls were made as follows: active = hit-call score of the fitted dose curve at least 0.9, where 1 is the maximum; inactive = score below 0.9.
endpoint: AC50

record_smiles | recorded_measurement
Clc1ccccc1C(c1ccccc1)(c1ccccc1)n1ccnc1 | 29.8 µM (active)
CCCC(=O)OCCC(C)C | inactive
O=C=NCCCCCCN=C=O | inactive
CN(C)C(=O)C1(N2CCCCC2)CCN(CC[C@@]2(c3ccc(Cl)c(Cl)c3)CN(C(=O)c3ccccc3)CCO2)CC1 | 20.2 µM (active)
O=c1ccc2ccccc2o1 | inactive
CCOC(=O)O[C@H](C)OC(=O)c1ccc2c(c1)cc(C(=O)NC1CCN(C(C)C)CC1)n2Cc1cc(-c2ccc(Cl)s2)on1 | inactive
CCCCCc1ccc(N)cc1 | inactive
O=C(O)Cn1c(=O)n(Cc2ccc(Br)cc2F)c(=O)c2ccc(Cl)cc21 | inactive
COc1ccc2cc(S(=O)(=O)N[C@H](CC(=O)N[C@H](Cc3ccc(CN4[C@H](C)CCC[C@@H]4C)cc3)C(=O)N(C)C(C)C)c3ccc4c(c3)OCO4)ccc2c1 | 10.7 µM (active)
CC[C@H](NC(=O)c1cc(F)ccc1NS(=O)(=O)c1cccc2cccnc12)c1ccccc1 | inactive
Clc1cc(Cl)c2c(c1)N=C1CCCCCN1C2 | inactive

###

protocol_text: APR_HepG2_MitoMembPot_72hr: Apredica 72-hour HepG2 Assay for Mitochondrial Membrane Potential (AID 2282917)
stated_conditions: imaging, actives raise or lower the signal
Calls of active or inactive are those of the source. How the source made its calls: active means hit-call score of the fitted dose curve at least 0.9, where 1 is the maximum; inactive means score below 0.9.
Labels: true (1) = active, false (0) = inactive

compound | class
COc1ccc2cc(S(=O)(=O)N[C@H](CC(=O)N[C@H](Cc3ccc(CN4[C@H](C)CCC[C@@H]4C)cc3)C(=O)N(C)C(C)C)c3ccc4c(c3)OCO4)ccc2c1 | false (0)
COCC(C)OCC(C)OCC(C)O (stereo not given) | false (0)
COc1cc(C(=O)NC2CCN(C)CC2)ccc1Nc1ncc2c(n1)N(C1CCCC1)CC(F)(F)C(=O)N2C | false (0)
OC12N=C(c3ccccc3)SC1Cc1cc(Cl)ccc12 (stereo not given) | true (1)
CCCOC(=O)c1cc(O)c(O)c(O)c1 | false (0)

###

target_or_test_system: X-box-binding protein 1 (Homo sapiens) (UniProt P17861)
Sequence (P17861 whole entry, looked up): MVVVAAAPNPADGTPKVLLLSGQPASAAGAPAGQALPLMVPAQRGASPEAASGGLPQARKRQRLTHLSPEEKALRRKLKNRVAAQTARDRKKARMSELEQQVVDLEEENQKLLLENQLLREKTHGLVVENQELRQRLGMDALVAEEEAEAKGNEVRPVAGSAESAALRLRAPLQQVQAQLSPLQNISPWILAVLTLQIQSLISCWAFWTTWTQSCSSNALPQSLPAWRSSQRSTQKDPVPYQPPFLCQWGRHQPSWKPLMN
protocol_text: ATG_Xbp1_CIS: Attagene CIS-FACTORIAL HepG2 Assay for human X-box Binding Protein 1 (XBP1) (AID 2282972)
stated_conditions: HepG2 XBP1 cis-element reporter, Attagene multiplex; actives raise or lower the signal
The source made the active and inactive calls. Rule for the calls: active = hit-call score of the fitted dose curve at least 0.9, where 1 is the maximum; inactive = score below 0.9.
endpoint: outcome

record_smiles | target_or_test_system | recorded_measurement
CCN(CC)C(=O)c1cc(S(=O)(=O)Cc2ccccc2)c(N2CCC(c3ccccc3)CC2)cc1N(CC)CCN(C)C | X-box-binding protein 1 (Homo sapiens) (UniProt P17861) | inactive
O=C1O[C@H]([C@@H](O)CO)C(O)=C1O | X-box-binding protein 1 (Homo sapiens) (UniProt P17861) | inactive
Cc1cc(F)ccc1-c1cc(N2CC[C@@H](O)[C@H]2CO)ncc1N(C)C(=O)C(C)(C)c1cc(C(F)(F)F)cc(C(F)(F)F)c1 | X-box-binding protein 1 (Homo sapiens) (UniProt P17861) | inactive
O=C1c2ccccc2C(=O)N1CCc1noc(-c2ccc(CN3CCCCCC3)s2)n1 | X-box-binding protein 1 (Homo sapiens) (UniProt P17861) | inactive
CCCCCCCCN(C)CCCCCCCC | X-box-binding protein 1 (Homo sapiens) (UniProt P17861) | inactive

###

Test system: rat Norepinephrine Transporter (NET), gene 83511
protocol_text: NVS_TR_rNET: NovaScreen (NVS) Transporter Assay for rat Norepinephrine Transporter (NET) (AID 2283373)
Results filed as inconclusive are left out. The source made the active and inactive calls. The calls were made as follows: active = hit-call score of the fitted dose curve at least 0.9, where 1 is the maximum; inconclusive = response in the unintended direction; inactive = score below 0.9.
Reported AC50 values for a set of molecules

record_smiles | AC50
O=C1c2ccccc2C(=O)N1CCc1noc(-c2ccc(CN3CCCCCC3)s2)n1 | 7.26 µM (active)
COc1cc(C(=O)NC2CCN(C)CC2)ccc1Nc1ncc2c(n1)N(C1CCCC1)CC(F)(F)C(=O)N2C | 9.31 µM (active)
NCc1cccc(C2CCN(C(=O)c3ccc(C#Cc4ccccc4F)o3)CC2)c1 | 18.9 µM (active)
Clc1cc(Cl)c2c(c1)N=C1CCCCCN1C2 | 4.16 µM (active)

###

Read-out: Epidermal growth factor receptor (EGFR), EGFR (gene 1956)
protocol_text: BSK_hDFCGF_EGFR: BioMAP Diversity Plus: hDFCGF Assay for Epidermal growth factor receptor (EGFR) Biomarker Activity (AID 2283057)
stated_conditions: primary human foreskin fibroblasts; actives raise or lower the signal
The source made the active and inactive calls. Rule for the calls: active = hit-call score of the fitted dose curve at least 0.9, where 1 is the maximum; inactive = score below 0.9.
Labels: t = active, f = inactive

compound | class
CCCCCCCCCCCO | f
CN(C)c1ccc(C(=C2C=CC(=[N+](C)C)C=C2)c2ccc(N(C)C)cc2)cc1 | f
c1ccc2n[nH]nc2c1 | f
COc1cc(C(=O)NC2CCN(C)CC2)ccc1Nc1ncc2c(n1)N(C1CCCC1)CC(F)(F)C(=O)N2C | f
OCCO | f
Clc1ccccc1C(c1ccccc1)(c1ccccc1)n1ccnc1 | f
O=C(O)Cc1cc(I)c(Oc2ccc(O)c(I)c2)c(I)c1 | f
CCO[Si](CCCNC(N)=O)(OCC)OCC | f
CCCCOC(=O)CC(CC(=O)OCCCC)(OC(C)=O)C(=O)OCCCC | f
COCC(C)OCC(C)OCC(C)O (stereo not drawn) | f
CC(C)(c1cc(Br)c(O)c(Br)c1)c1cc(Br)c(O)c(Br)c1 | f
Cc1cc(F)ccc1-c1cc(N2CC[C@@H](O)[C@H]2CO)ncc1N(C)C(=O)C(C)(C)c1cc(C(F)(F)F)cc(C(F)(F)F)c1 | f
CCCCCCCCOc1ccc(C(=O)c2ccccc2)c(O)c1 | f
Cc1occc1C(=O)Nc1ccc(C(=O)N2CCC(F)(F)/C(=C\C(=O)N3CCC(N4CCCCC4)CC3)c3ccccc32)cc1 | f
CN(C[C@@H](CC[N+]12CCC(C3CCCCC3)(CC1)CC2)c1ccc(Cl)c(Cl)c1)C(=O)c1cc(C(F)(F)F)cc(C(F)(F)F)c1 | t
CCCC(=O)OCCC(C)C | f
C[C@]12CC[C@@H]3c4ccc(O)cc4CC[C@H]3[C@@H]1CC[C@H]2O | f
Cc1oc2c(NC(=O)c3c(Cl)cccc3Cl)cccc2c1C(C)(C)O | t
CC(=O)N1CCN(c2ccc(OC[C@H]3CO[C@](Cn4ccnc4)(c4ccc(Cl)cc4Cl)O3)cc2)CC1 | f
c1ccc(C[n+]2cccc3ccccc32)cc1 | f
O=C(O)c1ccccc1C(=O)OCc1ccccc1 | f
NC(=O)c1nc(-c2cccc(-c3cc(F)ccc3OCC(F)(F)C(F)(F)F)c2)n[nH]1 | f
O=CCCCC=O | f

###

protocol_text: ATG_AP_1_CIS: Attagene CIS-FACTORIAL HepG2 Assay for human Activator Protein 1 (AP-1) (AID 2282931)
stated_conditions: HepG2 Attagene cis-factorial AP-1 reporter mRNA; actives raise or lower the signal
Calls of active or inactive are those of the source. The calls were made as follows: active = hit-call score of the fitted dose curve at least 0.9, where 1 is the maximum; inactive = score below 0.9.
Labels: y for active, n for inactive

record_smiles | class
NCc1cccc(C2CCN(C(=O)c3ccc(C#Cc4ccccc4F)o3)CC2)c1 | y
CC[C@H](NC(=O)c1cc(F)ccc1NS(=O)(=O)c1cccc2cccnc12)c1ccccc1 | n
COc1ccc2cc(S(=O)(=O)N[C@H](CC(=O)N[C@H](Cc3ccc(CN4[C@H](C)CCC[C@@H]4C)cc3)C(=O)N(C)C(C)C)c3ccc4c(c3)OCO4)ccc2c1 | y
CCCCCCCCCCCO | n
Cc1occc1C(=O)Nc1ccc(C(=O)N2CCC(F)(F)/C(=C\C(=O)N3CCC(N4CCCCC4)CC3)c3ccccc32)cc1 | n
CN(C[C@@H](CC[N+]12CCC(C3CCCCC3)(CC1)CC2)c1ccc(Cl)c(Cl)c1)C(=O)c1cc(C(F)(F)F)cc(C(F)(F)F)c1 | n
CC1=CC(=O)/C(=C(/C)O)C(=O)O1 | n
CCCC(=O)OCCC(C)C | n
O=C(O)Cn1c(=O)n(Cc2ccc(Br)cc2F)c(=O)c2ccc(Cl)cc21 | n
CN(C)C(=O)C1(N2CCCCC2)CCN(CC[C@@]2(c3ccc(Cl)c(Cl)c3)CN(C(=O)c3ccccc3)CCO2)CC1 | y
CCO[Si](CCCNC(N)=O)(OCC)OCC | n
CCCCOC(=O)CC(CC(=O)OCCCC)(OC(C)=O)C(=O)OCCCC | n
CCCCCCCC[Si](OCC)(OCC)OCC | y
O=C1CCC(C2CCCCC2)CC1 | y
COc1cccc([C@H](O)C2CCN(CCc3ccc(F)cc3)CC2)c1OC | n
Cc1ccc2oc(CN(Cc3ccccc3)C(=O)Nc3c(F)cc(F)cc3F)c(-c3ccc(Cl)cc3)c2c1 | n
CCCCCCCCCCCCO | n
CCN(CC)C(=O)c1cc(S(=O)(=O)Cc2ccccc2)c(N2CCC(c3ccccc3)CC2)cc1N(CC)CCN(C)C | n
OCCO | n
CC(=O)N1CCN(c2ccc(OC[C@H]3CO[C@](Cn4ccnc4)(c4ccc(Cl)cc4Cl)O3)cc2)CC1 | y
c1ccc2n[nH]nc2c1 | n
O=C=NCCCCCCN=C=O | n

These data points were gathered from PubChem BioAssay (EPA / NIEHS).
